B1: tRNA (parent)
chain: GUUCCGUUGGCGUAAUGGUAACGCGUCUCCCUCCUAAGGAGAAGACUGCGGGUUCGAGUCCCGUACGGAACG

- Variants of: B1
- TEST NAME: yeast fitness relative to wild type (ratio to wild type); higher = fitter; tRNA-Arg(CCU), competitive growth, 37 C, YPD
This sample holds only a part of the variants without activity.
# maps each entry to its yeast fitness

The examples below pair each entry with its known result.
1) C4U C29A    0.691
2) U7C C46U C61A G67A    0.561
3) G6C C22G    0.761
4) U8G G10C A40C    ≤ 0.5
5) C29U C49A    0.592

Input line: Param item = C11A U26C C29G C31U ; retrieve measured yeast fitness.
Output line: 0.655

Input line: Param item = G25C U59A ; retrieve measured yeast fitness.
Output line: 0.804

Input line: Param item = A43C U64C A70C ; retrieve measured yeast fitness.
Output line: 0.989
